Measured Emax accompanies every entry in the list below.
assay.target: Ghrelin receptor (Homo sapiens, UniProt Q92847)
Sequence (Q92847 whole entry): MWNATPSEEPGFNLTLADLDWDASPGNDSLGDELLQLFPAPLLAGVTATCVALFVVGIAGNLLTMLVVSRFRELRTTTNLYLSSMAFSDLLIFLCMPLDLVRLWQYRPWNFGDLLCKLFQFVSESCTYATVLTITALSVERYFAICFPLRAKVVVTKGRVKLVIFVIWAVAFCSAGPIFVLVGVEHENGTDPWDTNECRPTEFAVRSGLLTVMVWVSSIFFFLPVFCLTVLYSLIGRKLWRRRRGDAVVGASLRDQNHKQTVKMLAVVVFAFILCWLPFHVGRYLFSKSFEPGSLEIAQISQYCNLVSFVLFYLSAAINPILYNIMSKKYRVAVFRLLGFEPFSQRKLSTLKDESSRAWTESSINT
assay.comment: Receptor Selection and Amplification Technology (R-SAT) assay
Assay type: cell-based
Parameters: expressed in transfected cells; host or cells: NIH3T3
measurement.parameters: percent inhibition at saturating ligand, normalized to reference ligand Substance P analog = 100%; read-out: RSAT Eff(%)
// note: answer is a bare numeric in %

The following molecules have reported results that may help.
COc1ccc2c(C(C)=O)cn(CCCN3CCC(C(C)c4ccccc4)CC3)c2c1 (stereo not shown) = 73
CC(=O)c1cn(CCN2CCC(Cc3ccccc3)CC2)c2ccccc12 = 77
CCCCC1CCN(CCCn2cc(C(C)=O)c3ccc(OC)cc32)CC1 = 63
O=C(c1cn(CCCN2CCCN(Cc3ccc(F)cc3)CC2)c2ncccc12)C(F)(F)F = 83
CCCCCCC1CCN(CCCn2cc(C(C)=O)c3ccccc32)CC1 = 94

Short answer on Ghrelin receptor (Homo sapiens, UniProt Q92847) for CCc1cccc2c(C(C)=O)cn(CCCN3CCC(c4nc(-c5ccncc5)no4)CC3)c12 , Emax: 121

Short answer on Ghrelin receptor (Homo sapiens, UniProt Q92847) for CC(CN1C2CCC1CC(Oc1ccc(F)cc1)C2)Cn1cc(C(=O)C(F)(F)F)c2cccnc21 (stereo not shown) , Emax: 35

Short answer on Ghrelin receptor (Homo sapiens, UniProt Q92847) for CC(=O)c1cn(CCCN2CCC(c3nc(-c4cccnc4)no3)CC2)c2ncccc12 , Emax: 55

Short answer on Ghrelin receptor (Homo sapiens, UniProt Q92847) for O=C(c1cn(CCCN2CCCC(Cc3ccccc3Cl)C2)c2ncccc12)C(F)(F)F (stereo not shown) , Emax: 27

Short answer on Ghrelin receptor (Homo sapiens, UniProt Q92847) for CCc1cccc2c(C(C)=O)cn(CCCN3CCN(Cc4ccc(Cl)cc4Cl)CC3)c12 , Emax: 106
